molecular target: Mcl-1/Bim interaction (Homo sapiens (Human), UniProt Q07820); test: Cell Free Mcl-1: Bim Affinity Assay (Mcl-1 HTRF); conditions: TR-FRET, recombinant human Mcl-1(171-327), biotin-Bim(51-76); read-out: Mel-1 HTRF IC50
Sequence (Q07820 171-327): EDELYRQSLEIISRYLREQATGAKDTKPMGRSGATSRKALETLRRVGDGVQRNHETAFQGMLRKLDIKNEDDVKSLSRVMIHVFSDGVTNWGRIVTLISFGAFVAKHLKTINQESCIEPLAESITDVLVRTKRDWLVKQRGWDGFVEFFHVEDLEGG
pIC50: −log10 of the molar value.
valueType: pIC50

1. C[C@@H]1[C@@H](C)CCC[C@@H]([C@H]2OC[C@@H](N(C)C)CO2)[C@@H]2CC[C@H]2CN2C[C@@]3(CCCc4cc(Cl)ccc43)COc3ccc(cc32)C(=O)NS1(=O)=O (relative stereo)
8.80
2. CN[C@H]1CO[C@@H]([C@H]2CCC[C@H](C)[C@@H](C)S(=O)(=O)NC(=O)c3ccc4c(c3)N(C[C@@H]3CC[C@H]32)C[C@@]2(CCCc3cc(Cl)ccc32)CO4)OC1 (relative stereo) [Example 42]
9.21

----------
List of IC50 values.
molecular target: Mcl-1/Bim interaction (Homo sapiens (Human), UniProt Q07820); assay: Cell Free Mcl-1: Bim Affinity Assay (Mcl-1 HTRF); settings: TR-FRET, recombinant human Mcl-1(171-327), biotin-Bim(51-76); read-out: Mel-1 HTRF IC50
valueType: IC50 (pM)

1) C[C@@H]1[C@@H](C)CCC[C@H]([C@H]2OC[C@H](O)CO2)[C@@H]2CC[C@H]2CN2C[C@@]3(CCCc4cc(Cl)ccc43)COc3ccc(cc32)C(=O)NS1(=O)=O [Example 14]
765
2) C[C@@H]1[C@@H](C)CCC[C@H]([C@H]2OC[C@@H](N(C)C3CC3)CO2)[C@@H]2CC[C@H]2CN2C[C@@]3(CCCc4cc(Cl)ccc43)COc3ccc(cc32)C(=O)NS1(=O)=O [Example 69]
535
3) C[C@@H]1[C@@H](C)CCC[C@@H]([C@H]2OC[C@@H](CN(C)C)O2)[C@@H]2CC[C@H]2CN2C[C@@]3(CCCc4cc(Cl)ccc43)COc3ccc(cc32)C(=O)NS1(=O)=O (single isomer, unassigned) [Example 29]
837

----------
system: OPM-2; assay: Cell Viability Assay (OPM-2 10 FBS); type: cell-based, human; details: Homo sapiens, OPM-2, 16 h, OPM-2 cells, CellTiter-Glo, read-out: OPM-2 10% FBS IC50 IP
IC50 for assorted molecules
valueType: IC50

1. CCN(CC)[C@H]1CO[C@H]([C@H]2CCC[C@H](C)[C@@H](C)S(=O)(=O)NC(=O)c3ccc4c(c3)N(C[C@@H]3CC[C@H]32)C[C@@]2(CCCc3cc(Cl)ccc32)CO4)OC1
0.403 µM
2. C[C@@H]1[C@@H](C)CCC[C@H]([C@H]2OC[C@@H](N3CC4(COC4)C3)CO2)[C@@H]2CC[C@H]2CN2C[C@@]3(CCCc4cc(Cl)ccc43)COc3ccc(cc32)C(=O)NS1(=O)=O
0.61 µM
3. C[C@H]1CCC[C@H]([C@H]2OC[C@@H](N(C)C)CO2)[C@@H]2CC[C@H]2CN2C[C@@]3(CCCc4cc(Cl)ccc43)COc3ccc(cc32)C(=O)NS(=O)(=O)C1 (stereo in doubt)
0.595 µM

----------
molecular target: Mcl-1/Bim interaction (Homo sapiens (Human)); assay: Cell Free Mcl-1: Bim Affinity Assay (Mcl-1 HTRF); assay type: binding; details: TR-FRET, recombinant human Mcl-1(171-327), biotin-Bim(51-76); read-out: Mel-1 HTRF IC50
Note to self: use criterion met only for IC50 readings below 2 nM; a reading exactly at 2 nM still gets criterion not met.

1) C[C@H]1CCC[C@H]([C@H]2OC[C@@H](N(C)C)CO2)[C@@H]2CC[C@H]2CN2C[C@@]3(CCCc4cc(Cl)ccc43)COc3ccc(cc32)C(=O)NS(=O)(=O)C1 (stereo in doubt) [Example 77]
criterion not met
2) C[C@@H]1[C@@H](C)CCCC(C2OCC(N)(CO)CO2)[C@@H]2CC[C@H]2CN2C[C@@]3(CCCc4cc(Cl)ccc43)COc3ccc(cc32)C(=O)NS1(=O)=O (single isomer, unassigned)
criterion met
3) C[C@@H]1[C@@H](C)CCC[C@@H]([C@H]2OC[C@@H](N3CC(Cl)C3)CO2)[C@@H]2CC[C@H]2CN2C[C@@]3(CCCc4cc(Cl)ccc43)COc3ccc(cc32)C(=O)NS1(=O)=O (single isomer, unassigned) [Example 55]
criterion met
4) CCN(C)[C@H]1CO[C@@H]([C@H]2CCC[C@H](C)[C@@H](C)S(=O)(=O)NC(=O)c3ccc4c(c3)N(C[C@@H]3CC[C@H]32)C[C@@]2(CCCc3cc(Cl)ccc32)CO4)OC1 [Example 66]
criterion met
5) C[C@@H]1[C@@H](C)CCC[C@H](C2OCCCO2)[C@@H]2CC[C@H]2CN2C[C@@]3(CCCc4cc(Cl)ccc43)COc3ccc(cc32)C(=O)NS1(=O)=O [Example 8]
criterion met
6) CC(=O)N1C[C@@H]2O[C@@H]([C@H]3CCC[C@H](C)[C@@H](C)S(=O)(=O)NC(=O)c4ccc5c(c4)N(C[C@@H]4CC[C@H]43)C[C@@]3(CCCc4cc(Cl)ccc43)CO5)O[C@@H]2C1 [Example 36]
criterion met
7) C[C@@H]1[C@@H](C)CCC[C@@H]([C@H]2OC[C@@H](N3CCC3(C)C)CO2)[C@@H]2CC[C@H]2CN2C[C@@]3(CCCc4cc(Cl)ccc43)COc3ccc(cc32)C(=O)NS1(=O)=O (single isomer, unassigned) [Example 63]
criterion not met
8) C[C@@H]1[C@@H](C)CCC[C@H]([C@H]2O[C@H]3CNC[C@H]3O2)[C@@H]2CC[C@H]2CN2C[C@@]3(CCCc4cc(Cl)ccc43)COc3ccc(cc32)C(=O)NS1(=O)=O (stereo in doubt) [Example 35]
criterion met
9) C[C@@H]1[C@@H](C)CCC[C@H]([C@H]2OC[C@H](N3C(=O)c4ccccc4C3=O)CO2)[C@@H]2CC[C@H]2CN2C[C@@]3(CCCc4cc(Cl)ccc43)COc3ccc(cc32)C(=O)NS1(=O)=O (relative stereo) [Example 45]
criterion not met
